Assay: small-molecule binders of probe aLefty1, primary screen, biochemical, small-molecule microarray, 635/667 nm fluorescence (AID 1153);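 also: score merges spot fluorescence with signal-to-noise ratio from the scanned slide images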
Conditions: higher = more signal
Listed here are compounds together with their documented composite z-score.
Number only, no unit.

Req: // lookup composite z-score for COc1cc(C(O)C2C=CC3C(=O)NC(=O)C3N2Nc2ccccn2)cc(OC)c1OC (stereo not given)
Resp: 0.19

###

Test: small-molecule microarray binders of probe aXIP, primary screen, biochemical, NeuroSMM set, 635/667 nm fluorescence (AID 1119);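 also: probe is the protein aXip251-270 applied at 1 µg/mL to compound-printed slides; binding of probe to printed compounds measured as 667 nm fluorescence plus signal to noise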
Details: higher = more signal, called active from +8 up or from −8 down
Listed here are molecules together with their documented composite Z-score.
Number only, no unit.

MOLECULE | composite Z-score
C=CCNC(=O)[C@@H]1[C@H]2C(=O)O[C@H](c3ccccc3)[C@H](c3ccccc3)N2[C@H](c2ccc(O)cc2)[C@@]12C(=O)Nc1ccc(C#CCNC(N)=O)cc12 | 0.0219
CC(C)=CCCC(C)=CC(O)C1C=CC2C(=O)N(C)C(=O)C2N1Nc1ccccc1 (stereo unspecified) | -0.305
C=CCOC(=O)[C@H]1[C@@H]2C(=O)O[C@@H](c3ccccc3)[C@@H](c3ccccc3)N2[C@@H](c2ccc(OCCOC(=O)[C@H]3C[C@H]4C(=O)N[C@@H](CCCCNC(C)=O)C(=O)N4[C@H]3c3ccc(O)cc3)cc2)[C@]12C(=O)Nc1ccc(I)cc12 | 0.745
CCOC(=O)C[C@H]1[C@H](OC(=O)c2ccc(C(=O)c3ccccc3)cc2)[C@@H](NC(=O)c2ccc3ccccc3c2)c2cc(OCCCO)ccc2N1C(=O)Cc1ccc(OC)cc1 | -0.68
COCCOC(=O)N1C(=O)[C@@]2(c3cc(C#CCC(C(=O)OC)C(=O)OC)ccc31)[C@H](C(=O)Nc1nc3ccccc3s1)[C@H]1C(=O)O[C@H](c3ccccc3)[C@H](c3ccccc3)N1[C@@H]2c1ccccc1OCCO | 0.259

Now let's try a different one.
Req: // lookup composite Z-score for COc1cc2c(cc1O)C(c1cccs1)N(C)CC2 (stereo unspecified)
Resp: -0.0667

###

Target: Albumin (Bos taurus) (UniProt P02769)
Sequence (P02769 whole entry, looked up): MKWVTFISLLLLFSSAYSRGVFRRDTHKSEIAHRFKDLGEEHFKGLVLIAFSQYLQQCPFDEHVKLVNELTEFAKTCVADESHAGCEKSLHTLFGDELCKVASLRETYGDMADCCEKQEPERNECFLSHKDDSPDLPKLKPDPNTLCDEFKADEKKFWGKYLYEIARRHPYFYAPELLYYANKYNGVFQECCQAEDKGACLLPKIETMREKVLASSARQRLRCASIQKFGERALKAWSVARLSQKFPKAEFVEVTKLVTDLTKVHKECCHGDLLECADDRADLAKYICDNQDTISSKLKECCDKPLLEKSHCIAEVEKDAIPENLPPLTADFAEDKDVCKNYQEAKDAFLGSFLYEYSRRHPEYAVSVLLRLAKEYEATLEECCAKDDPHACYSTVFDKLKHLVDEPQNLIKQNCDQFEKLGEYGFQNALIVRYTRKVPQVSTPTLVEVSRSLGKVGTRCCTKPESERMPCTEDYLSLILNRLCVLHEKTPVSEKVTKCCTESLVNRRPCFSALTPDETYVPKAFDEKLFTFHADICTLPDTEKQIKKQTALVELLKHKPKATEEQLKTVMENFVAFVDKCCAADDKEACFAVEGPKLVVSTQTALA
Assay: bovine serum albumin binders on microarray, profiling panel, artefact control for SMM control protein annotation, biochemical, small-molecule microarray, Alexa647 label, 635/667 nm fluorescence (AID 1118);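 also: score merges 667 nm emission intensity and signal-to-noise per printed compound spot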
Conditions: BSA-A647 binding, fluorescence 635 nm, higher = more signal
READOUT TYPE: composite z-score
Number only, no unit.

Worked set:
COMPOUND | composite z-score
[N-]=[N+]=NCc1ccccc1C[C@]1(C(N)=O)COC(c2ccc(OCCCO)cc2)=N1 | 0.624
Cc1ccc(S[C@]2(C(=O)NCCCN(C)C)CC(=O)N(Cc3cc(C(F)(F)F)cc(C(F)(F)F)c3)[C@@H]2c2ccc(CO)cc2I)cc1 | -0.39
C=CCOC(=O)[C@H]1[C@@H]2C(=O)O[C@@H](c3ccccc3)[C@@H](c3ccccc3)N2[C@@H](c2ccc(OCCOC(=O)[C@H]3C[C@H]4C(=O)N[C@@H](CCCCN(C)C)C(=O)N4[C@H]3c3ccc(O)cc3)cc2)[C@]12C(=O)Nc1ccc(I)cc12 | 0.412
CCCCCN1CC=CC23O[C@@H]4C=CCCOC(=O)C4[C@H]2C(=O)N(CCCCCO)[C@@H]3C1=O (some centres undefined) | 0.337

Req: // lookup composite z-score for COC(=O)[C@@]1(Cc2ccc(OC)cc2)[C@@H]2C(=CC(=O)[C@H]2CC(=O)C(=O)N2CCCC2)CN1C(=O)c1ccccc1
Resp: 0.826

Req: Try this compound too: C[N+](C)(C)CCCCCCNC(=O)[C@@H]1C[C@@H]2C(=O)N[C@@H](Cc3ccccc3)C(=O)N2[C@@H]1c1cccc(OCCO)c1
Resp: 0.358

###

Listed here are compounds together with their documented z-score.
Assay: adipocyte viability effects, profiling panel, cell-based, 3T3-L1 adipocytes, calcein-AM fluorescence, 48 h, basal (AID 1163); also: test concentration not given here
Settings: 3T3-L1 adipocytes viability, higher = more signal
Number only, no unit.

Worked set:
COMPOUND | z-score
COC(=O)[C@H](Cc1ccccc1)N1CC2=C[C@@H](C3CC3)n3c(=O)n(C)c(=O)n3[C@H]2[C@@H]1[C@@H](O)Cc1ccccc1 | -0.375
COC(=O)[C@@]1(Cc2ccc(OC)cc2)[C@H]2c3cc(C(=O)N(C)C)n(Cc4ccccn4)c3C[C@H]2CN1C(=O)c1ccccc1 | 0.626
CC1(C)C2C=C(C(O)C3C=CC4C(=O)NC(=O)C4N3Nc3ccc(Cl)cc3Cl)C[C@@H]1C2 (stereo partly specified) | -0.88
COCCOC(=O)N1C(=O)[C@@]2(c3cc(C#Cc4ccc(OC)cc4)ccc31)[C@H](c1ccc(O)cc1)N1[C@H](c3ccccc3)[C@H](c3ccccc3)OC(=O)[C@H]1[C@@H]2C(=O)N1CCc2cc(OC)c(OC)cc2C1 | 1.22
CC(C)[Si](C#Cc1ccc(Oc2ccccc2)cc1)(O[Si](C#Cc1ccc(Oc2ccccc2)cc1)(C(C)C)C(C)C)C(C)C | 0.587

Req: // lookup z-score for O[C@@H](Cc1ccccc1)[C@H]1C2C=CCCC=C2CN1Cc1cccc(Cl)c1 (stereo partly specified)
Resp: -0.0495

Req: Try this compound too: COCC(=C=CC[C@@H](O)c1cccc(OCCO)c1)C[C@@H](O)c1ccccn1
Resp: -0.0288

Req: Try this compound too: COc1cc2c(cc1OC)CN(C(=O)[C@H]1[C@@H]3C(=O)O[C@@H](c4ccccc4)[C@@H](c4ccccc4)N3[C@@H](c3ccc(O)cc3)[C@]13C(=O)Nc1ccccc13)CC2
Resp: -0.843

Req: Try this compound too: C=C(/C(=C/C[C@H](OC(C)=O)c1ccccc1OCCO)c1cnc2ccccc2c1)C(C)C
Resp: -0.665

Req: Try this compound too: NCCCCCCNC(=O)[C@@H]1C[C@@H]2C(=O)NCC(=O)N2[C@@H]1c1ccc(O)cc1
Resp: 0.544

Req: Try this compound too: C=C[C@H](CO[Si](CC)(CC)CC)N(Cc1ccc(OC(C)=O)c(OC)c1)S(=O)(=O)c1ccc(Br)cc1
Resp: 0.327

Req: Try this compound too: C=CCC(OC(C)=O)[C@@H]1[C@@H](N(Cc2ccc(-c3ccccc3)cc2)C(=O)Cc2ccc(OC)cc2)c2cc(OCCCO)ccc2N1C(=O)Cc1ccc2ccccc2c1 (stereo partly specified)
Resp: 0.358

###

System: Inhibin beta A chain (activin A)
Assay: INHBA (activin A) binders on microarrays, primary screen, biochemical, small-molecule microarray, 635 nm fluorescence scan (AID 1107);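 also: mouse activin A protein probed at 4.33 µg/mL on printed slides; score merges bound-protein fluorescence near 667 nm with spot signal-to-noise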
Details: small-molecule microarray binding, higher = more signal
Output yes for composite z-score not less than 1; output no otherwise.

These solved cases illustrate the format of a correct answer.
COMPOUND | LABEL VALUE
CC(C)NC(=O)[C@@]1(C)c2ccccc2C(=O)N(Cc2cc(C(F)(F)F)cc(C(F)(F)F)c2)[C@H]1c1ccc(CO)cc1 | no
COC(=O)[C@@]1(Cc2ccc(F)cc2)[C@H]2c3cc(C(=O)N(C)C)n(Cc4cc(F)c(F)c(F)c4)c3C[C@H]2CN1C(=O)c1ccccc1 | no
C=C(/C(=C/C[C@H](OC(C)=O)c1ccccc1OCCO)c1cnc2ccccc2c1)C(C)C | yes
COc1cccc(-c2cccc(=O)o2)c1 | yes
COc1cc2c(cc1OC)CN(C(=O)[C@H]1[C@@H]3C(=O)O[C@@H](c4ccccc4)[C@@H](c4ccccc4)N3[C@@H](c3ccc(O)cc3)[C@]13C(=O)Nc1ccccc13)CC2 | no

Req: Hello, I need to know if C=CCC(OC(C)=O)[C@@H]1[C@@H](N(Cc2cccc3ccccc23)C(=O)c2ccc(-c3ccccc3)cc2)c2cc(OCCCO)ccc2N1C(=O)c1ccc2ccccc2c1 (stereo not given in full) has measured composite z-score not below 1. Thanks!
Resp: yes

Req: Try this compound too: CC(C)=CCCC(C)=CC(O)C1C=CC2C(=O)N(C)C(=O)C2N1Nc1ccccc1 (stereo not given)
Resp: yes

Req: Try this compound too: COC(=O)[C@@]1(Cc2ccccc2)[C@H]2c3cc(C(=O)N(C)C)n(Cc4ccsc4Br)c3C[C@H]2CN1C(=O)c1ccccc1
Resp: no

Req: Try this compound too: C=CCNC(=O)[C@H]1[C@@H]2C(=O)O[C@@H](c3ccccc3)[C@@H](c3ccccc3)N2[C@@H](c2ccccc2OCCO)[C@]12C(=O)Nc1ccc(C#CCC(C(=O)OC)C(=O)OC)cc12
Resp: no

Req: Try this compound too: C=C(C)[C@@H]1CC=C(C(O)C2C=CC3C(=O)N(c4ccccc4)C(=O)C3N2Nc2ccccc2)CC1 (stereo not given in full)
Resp: no

Req: Try this compound too: COC(=O)[C@@]1(Cc2ccc(OC)cc2)[C@H]2c3cc(C(=O)N4CCCC4)n(CCN4CNCC4=O)c3C[C@H]2CN1C(=O)c1ccccc1
Resp: no
